Hello, the source for this data is ChEMBL document CHEMBL1136582, in case you need it.

- Measured Target: Signal transducer and activator of transcription 3 (Homo sapiens)
- Sequence (P40763 whole entry): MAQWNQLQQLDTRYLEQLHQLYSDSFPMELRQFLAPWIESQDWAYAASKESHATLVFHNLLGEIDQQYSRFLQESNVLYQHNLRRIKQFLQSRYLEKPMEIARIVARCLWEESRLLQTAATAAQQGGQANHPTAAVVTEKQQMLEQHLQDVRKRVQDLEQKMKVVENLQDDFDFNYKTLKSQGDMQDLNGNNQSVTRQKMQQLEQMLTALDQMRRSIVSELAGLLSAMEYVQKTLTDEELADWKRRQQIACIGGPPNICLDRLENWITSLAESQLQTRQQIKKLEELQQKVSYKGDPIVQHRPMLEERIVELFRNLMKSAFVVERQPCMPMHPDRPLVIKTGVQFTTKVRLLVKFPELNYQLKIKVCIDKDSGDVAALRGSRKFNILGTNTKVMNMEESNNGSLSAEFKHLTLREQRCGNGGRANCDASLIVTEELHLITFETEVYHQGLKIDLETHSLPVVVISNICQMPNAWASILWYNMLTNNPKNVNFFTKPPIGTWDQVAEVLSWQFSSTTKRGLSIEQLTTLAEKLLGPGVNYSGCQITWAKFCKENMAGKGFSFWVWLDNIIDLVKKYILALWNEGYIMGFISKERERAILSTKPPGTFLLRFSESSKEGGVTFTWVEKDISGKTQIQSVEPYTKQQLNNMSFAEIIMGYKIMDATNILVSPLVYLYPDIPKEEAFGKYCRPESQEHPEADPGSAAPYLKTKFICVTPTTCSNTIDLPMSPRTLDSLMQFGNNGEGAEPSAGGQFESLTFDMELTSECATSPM
- Assay Protocol: Inhibition of Stat3 (Signal transduction and activator of transcription 3) dimerization measured by EMSAs (Electrophoretic mobility shift assay)
Square brackets hold non-standard residues; d marks the D form. Peptide text beside a SMILES is read from it. Phe(4-tetrazol-5-yl) = N[C@@H](Cc1ccc(-c2nnn[nH]2)cc1)C(=O)O; Phe(4-COOH) = N[C@@H](Cc1ccc(C(=O)O)cc1)C(=O)O; pY = N[C@@H](Cc1ccc(OP(=O)(O)O)cc1)C(=O)O
Lab note: compare IC50 with 6 µM, writing Fulfilled if less and Not fulfilled if equal or more.

Exam item: # TODO verify IC50 < 6 µM strictly for this molecule: CC(=O)N[C@@H](Cc1ccc(OP(=O)(O)O)cc1)C(=O)N[C@@H](CCC(N)=O)C(=O)N[C@@H](CCCCN)C(=O)N[C@@H](CCC(N)=O)C(=O)N[C@H](C(=O)N[C@@H](CCCN=C(N)N)C(N)=O)[C@@H](C)O (Ac-[pY]QKQTR-NH2)
Marked response: Not fulfilled

Exam item: # TODO verify IC50 < 6 µM strictly for this molecule: CC(=O)N[C@@H](Cc1ccc(-c2nn[nH]n2)cc1)C(=O)N[C@@H](CC(C)C)C(=O)N1CCC[C@H]1C(=O)N[C@@H](CCC(N)=O)C(=O)N[C@H](C(=O)N[C@H](C(N)=O)C(C)C)[C@@H](C)O (Ac-[Phe(4-tetrazol-5-yl)]LPQTV-NH2)
Marked response: Not fulfilled

Exam item: # TODO verify IC50 < 6 µM strictly for this molecule: CSCC[C@H](NC(=O)[C@H](C)NC(=O)[C@H](CCC(N)=O)NC(=O)[C@@H]1CCCN1C(=O)[C@H](CCCN=C(N)N)NC(=O)[C@H](Cc1ccc(OP(=O)(O)O)cc1)NC(C)=O)C(N)=O (Ac-[pY]RPQAM-NH2)
Marked response: Fulfilled

Exam item: # TODO verify IC50 < 6 µM strictly for this molecule: CC(=O)N[C@@H](Cc1ccc(OP(=O)(O)O)cc1)C(=O)N[C@@H](CC(C)C)C(=O)N1CCC[C@H]1C(=O)N[C@@H](C)C(=O)N[C@H](C(=O)N[C@H](C(N)=O)C(C)C)[C@@H](C)O (Ac-[pY]LPATV-NH2)
Marked response: Not fulfilled

Exam item: # TODO verify IC50 < 6 µM strictly for this molecule: CSCC[C@H](NC(=O)[C@H](CCC(N)=O)NC(=O)[C@@H]1CCCN1C(=O)[C@H](CCCCN)NC(=O)[C@H](Cc1ccc(OP(=O)(O)O)cc1)NC(C)=O)C(=O)N[C@@H](Cc1cnc[nH]1)C(N)=O (Ac-[pY]KPQMH-NH2)
Marked response: Fulfilled

Exam item: # TODO verify IC50 < 6 µM strictly for this molecule: CC(=O)N[C@@H](Cc1ccc(OP(=O)(O)O)cc1)C(=O)N[C@@H](C)C(=O)N1CCC[C@H]1C(=O)N[C@@H](CCC(N)=O)C(=O)N[C@H](C(=O)N[C@H](C(N)=O)C(C)C)[C@@H](C)O (Ac-[pY]APQTV-NH2)
Marked response: Fulfilled

Exam item: # TODO verify IC50 < 6 µM strictly for this molecule: CC(=O)N[C@@H](Cc1ccc(OP(=O)(O)O)cc1)C(=O)N[C@H](C(=O)N[C@@H](CC(C)C)C(=O)N[C@@H](CCC(N)=O)C(=O)NCC(=O)N[C@@H](CC(=O)O)C(N)=O)C(C)C (Ac-[pY]VLQGD-NH2)
Marked response: Not fulfilled

Exam item: # TODO verify IC50 < 6 µM strictly for this molecule: CC(=O)N[C@@H](Cc1ccc(C(=O)O)cc1)C(=O)N[C@@H](CC(C)C)C(=O)N1CCC[C@H]1C(=O)N[C@@H](CCC(N)=O)C(=O)N[C@H](C(=O)N[C@H](C(N)=O)C(C)C)[C@@H](C)O (Ac-[Phe(4-COOH)]LPQTV-NH2)
Marked response: Not fulfilled
